B1: NP_009172.2 (parent)
chain: LPALFTDLYSQEITAEEAREALP

# Variants of: B1
# EXPERIMENT: protein stability index of a GFP-peptide fusion (GPS, HEK-293T) (PSI 1-6); higher = more stable;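 further: lentivirally expressed fusion library, cells FACS-sorted into six equal-sized GFP/DsRed ratio bins, PSI computed from sequencing read fractions per bin weighted by bin number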
# CONDITIONS: c terminus: native
For each of the variants below, state its protein stability index.
API note: the answer field is a bare number with no unit suffix.

// "P23I" : protein stability index value = 3.59

// "S10F" : protein stability index value = 2.57

// "E17Q" : protein stability index value = 2.83

// "L8M" : protein stability index value = 2.24

// "Q11Y" : protein stability index value = 2.67

// "E20I" : protein stability index value = 2.32

// "Q11C" : protein stability index value = 2.95

// "E16A" : protein stability index value = 2.76

// "T6I" : protein stability index value = 2.7

// "Q11D" : protein stability index value = 3.31

// "A15N" : protein stability index value = 2.66

// "T14F" : protein stability index value = 2.48

// "A15P" : protein stability index value = 3.05

// "L4S" : protein stability index value = 2.55

// "A21C" : protein stability index value = 2.46

// "S10A" : protein stability index value = 2.52

// "L1Y" : protein stability index value = 2.5

// "R19F" : protein stability index value = 2.68

// "A3K" : protein stability index value = 2.1

// "A15V" : protein stability index value = 2.78

// "T14L" : protein stability index value = 2.48

// "T14I" : protein stability index value = 2.25

// "L8G" : protein stability index value = 5.28

// "A3L" : protein stability index value = 2.56

// "E17I" : protein stability index value = 2.4

// "A21P" : protein stability index value = 2.69

// "L4N" : protein stability index value = 2.76

// "P2V" : protein stability index value = 2.46

// "A21F" : protein stability index value = 2.31

// "L4G" : protein stability index value = 2.69

// "P23L" : protein stability index value = 4.01

// "A15C" : protein stability index value = 3

// "E16K" : protein stability index value = 2.97
